src = patent US20240132603A1

Exercise: for every item that follows, state its recorded pEC50.
molecular target: T1, cynomolgus monkey CCR8 (cynomolgus monkey, UniProt G7NYJ2 1-355); experiment: FACS, CHO-K1-CynoCCR8 cells
T1 construct: whole, on cells; also called CynoCCR8
T1 sequence (G7NYJ2 entry or part of it): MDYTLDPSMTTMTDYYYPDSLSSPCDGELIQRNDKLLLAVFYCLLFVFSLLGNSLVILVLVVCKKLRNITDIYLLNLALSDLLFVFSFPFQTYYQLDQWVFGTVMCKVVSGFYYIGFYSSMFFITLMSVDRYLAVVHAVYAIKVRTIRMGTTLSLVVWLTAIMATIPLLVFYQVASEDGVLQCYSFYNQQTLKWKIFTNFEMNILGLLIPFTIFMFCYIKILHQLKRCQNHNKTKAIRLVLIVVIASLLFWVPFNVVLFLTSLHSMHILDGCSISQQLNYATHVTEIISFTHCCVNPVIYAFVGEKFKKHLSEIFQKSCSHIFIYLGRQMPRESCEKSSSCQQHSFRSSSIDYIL
Would you please state pEC50, meaning minus log10 of the concentration in mol/L, as a bare number?

Tell me pEC50 reported for PR004332 (antibody, human IgG1, kappa, V domains shown, heavy-chain semi-humanized variant of PR004128, IgG1 with DE mutation) VH: EVQLVESGGGLVKPGGSLRLSCAASGFTFNTYAMNWVRQAPGKGLEWVGRIRSKSNNYATYYADSVKDRFTISRDDSKSTLYLQMNSLKTEDTAVYYCVRGKENGNYYAMDYWGQGTTVTVSS VL: DIVMTQAAPSVPVTPGESVSISCRSSKSLLHSNGKIYLYWFLQRPGQSPQLLIYRMSNLASGVPDRFSGSGSGTAFTLRISRVEAEDVGVYYCMQHLEYPLTFGAGTKLEIKR
8.56

Kindly indicate its recorded pEC50. Item: PR004343 (antibody, human IgG1, kappa, V domains shown, light-chain semi-humanized variant of PR004128, IgG1 with DE mutation) VH: EVQLVESGGGLVQPKGSLKLSCAASGFTFNTYAMNWVRQAPGKGLEWVARIRSKSNNYATYYADSVKDRFTISRDDSQSMLYLQMNNLKTEDTAMYYCVRGKENGNYYAMDFWGQGTSVTVSA VL: DIVMTQSPLSLPVTLGQPASISCRSSKSLLHSNGKIYLYWFQQRPGQSPRLLIYRMSNLASGVPDRFSGSGSGTDFTLKISRVEAEDVGVYYCMQHLEYPLTFGQGTKLEIKR
8.20

Recall and state the measured pEC50 for PR004330 (antibody, human IgG1, kappa, V domains shown, heavy-chain semi-humanized variant of PR004128, IgG1 with DE mutation) VH: EVQLVESGGGLVKPGGSLRLSCAASGFTFNTYAMNWVRQAPGKGLEWVGRIRSKSNNYATYYADSVKDRFTISRDDSKSTLYLQMNSLKTEDTAVYYCVRGKENGNYYAMDFWGQGTTVTVSS VL: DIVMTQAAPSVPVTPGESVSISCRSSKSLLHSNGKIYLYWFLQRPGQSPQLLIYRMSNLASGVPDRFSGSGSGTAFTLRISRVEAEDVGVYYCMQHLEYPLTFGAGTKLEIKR .
8.40

Please list pEC50 recorded for the binder PR004337 (antibody, human IgG1, kappa, V domains shown, heavy-chain semi-humanized variant of PR004128, IgG1 with DE mutation) VH: EVQLVESGGGLVQPGGSLKLSCAASGFTFNTNAMNWVRQASGKGLEWVGRIRSKSNNYATYYADSVKDRFTISRDDSKSTLYLQMNSLKTEDTAVYYCVRGKENGNYYAMDFWGQGTTVTVSS VL: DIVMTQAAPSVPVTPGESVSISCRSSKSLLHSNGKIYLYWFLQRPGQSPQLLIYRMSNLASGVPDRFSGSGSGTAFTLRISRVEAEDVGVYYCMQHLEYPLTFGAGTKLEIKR
8.26

Give the measured pEC50 for PR004333 (antibody, human IgG1, kappa, V domains shown, heavy-chain semi-humanized variant of PR004128, IgG1 with DE mutation) VH: EVQLVESGGGLVQPGGSLRLSCAASGFTFNTYAMNWVRQAPGKGLEWVSRIRSKSNNYATYYADSVKDRFTISRDDSKSTLYLQMNSLRAEDTAVYYCVRGKENGNYYAMDFWGQGTTVTVSS VL: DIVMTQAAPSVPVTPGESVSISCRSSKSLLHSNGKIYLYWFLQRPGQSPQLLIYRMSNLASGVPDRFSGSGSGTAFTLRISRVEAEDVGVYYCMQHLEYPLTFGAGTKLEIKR
8.30

Please supply the value of reported pEC50 for the item PR004325 (antibody, human IgG1, kappa, V domains shown, PTM variant of PR004128, IgG1 with DE mutation) VH: EVQLVESGGGLVQPKGSLKLSCAASGFTFNTYAMNWVRQAPGKGLEWVARIRSKSNNYATYYADSVKDRFTISRDDSQSMLYLQMNNLKTEDTAMYYCVRGKENGNYYAMDFWGQGTSVTVSA VL: DIVMTQAAPSVPVTPGESVSISCRSSKSLLHSQGKIYLYWFLQRPGQSPQLLIYRMSNLASGVPDRFSGSGSGTAFTLRISRVEAEDVGVYYCMQHLEYPLTFGAGTKLEIKR
8.41
